- Study Conditions: Citrus sinensis
Measurement Kind: Distance Traveled (cm)
Answers are plain numbers, in cm.

Some solved entries appear below for comparison.
Compound	Meas Value
C=CCSSCC=C [Diallyl disulfide]	24
C=CCSSSCC=C [Diallyl Trisulfide]	26
O=CC=Cc1ccccc1 [Cinnamaldehyde]	12

Q. Which Distance Traveled is listed for Cc1nnc(C)s1 [2,5-Dimethyl-1,3,4-thiadiazole] ?
A. 14
